Measured values drawn from patent US20250115591A1 for this set.

# Target Entity: NLRP3 (Homo sapiens (Human), UniProt Q96P20)
# Sequence (Q96P20 whole entry): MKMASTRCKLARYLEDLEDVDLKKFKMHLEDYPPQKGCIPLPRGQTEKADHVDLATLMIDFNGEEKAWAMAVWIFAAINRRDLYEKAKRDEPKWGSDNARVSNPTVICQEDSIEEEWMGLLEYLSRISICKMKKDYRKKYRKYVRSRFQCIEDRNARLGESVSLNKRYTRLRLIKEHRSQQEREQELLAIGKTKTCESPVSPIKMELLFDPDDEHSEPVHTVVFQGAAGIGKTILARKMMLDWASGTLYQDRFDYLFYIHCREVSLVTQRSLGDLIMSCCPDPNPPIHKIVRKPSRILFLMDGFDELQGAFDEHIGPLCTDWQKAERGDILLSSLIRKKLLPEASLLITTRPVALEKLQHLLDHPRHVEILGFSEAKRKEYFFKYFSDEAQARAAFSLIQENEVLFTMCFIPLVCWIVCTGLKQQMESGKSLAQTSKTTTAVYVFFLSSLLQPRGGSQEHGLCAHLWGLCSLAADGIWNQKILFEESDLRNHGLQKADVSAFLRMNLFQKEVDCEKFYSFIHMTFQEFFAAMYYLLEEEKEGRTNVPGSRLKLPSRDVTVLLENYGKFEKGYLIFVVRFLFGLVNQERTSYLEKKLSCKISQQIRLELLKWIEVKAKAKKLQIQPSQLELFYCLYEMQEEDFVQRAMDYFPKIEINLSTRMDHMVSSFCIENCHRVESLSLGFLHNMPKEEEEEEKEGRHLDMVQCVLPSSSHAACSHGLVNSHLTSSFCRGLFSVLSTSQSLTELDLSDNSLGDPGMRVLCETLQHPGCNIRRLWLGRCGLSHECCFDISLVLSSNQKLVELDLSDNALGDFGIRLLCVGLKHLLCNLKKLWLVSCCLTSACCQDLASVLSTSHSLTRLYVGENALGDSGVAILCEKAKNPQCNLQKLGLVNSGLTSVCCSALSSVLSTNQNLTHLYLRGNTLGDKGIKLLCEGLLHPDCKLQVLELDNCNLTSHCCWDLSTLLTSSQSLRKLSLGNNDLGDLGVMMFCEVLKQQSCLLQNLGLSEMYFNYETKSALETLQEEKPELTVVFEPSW
# Procedure Summary: THP-1 cells pyroptosis assay (LPS + nigericin, resazurin read-out)
# Type: cell-based
# Assay Conditions: 1 μg/ml LPS, 5 μM nigericin
pIC50: −log10 of the molar value. Structures can show the parent of a compound that is named as a salt.
Measurement Name: pIC50

# Compound, Measurement Name, Result
records = [
    ("CCN1CC2(CC(S(=O)(=O)NC(=O)Nc3c4c(cc5c3CCC5)CCC4)C2)C1 [Example 50, potassium salt]", "pIC50", "5.00 to 6.00"),
    ("CC(C)N1CC2(CC(S(=O)(=O)NC(=O)Nc3c4c(cc5c3CCC5)CCC4)C2)C1 [Example 63, potassium salt]", "pIC50", "5.00 to 6.00"),
    ("O=C(Nc1c2c(cc3c1CCC3)CCC2)NS(=O)(=O)C1CN(Cc2ccccn2)C1 [Example 104, potassium salt]", "pIC50", "> 6.00"),
    ("O=C(Nc1c2c(cc3c1CCC3)CCC2)NS(=O)(=O)C1CCN(CC(F)(F)F)CC1 [Example 67, potassium salt]", "pIC50", "5.00 to 6.00"),
    ("CC(C)CN1CC(S(=O)(=O)NC(=O)Nc2c3c(cc4c2CCC4)CCC3)C1 [Example 97, potassium salt]", "pIC50", "> 6.00"),
    ("CC1CC(N2CC(S(=O)(=O)NC(=O)Nc3c4c(cc5c3CCC5)CCC4)C2)C1 (stereo not drawn) [Example 118, potassium salt]", "pIC50", "> 6.00"),
    ("CCC(CC)N1CC(S(=O)(=O)NC(=O)Nc2c3c(cc4c2CCC4)CCC3)C1 [Example 65, potassium salt]", "pIC50", "> 6.00"),
    ("CC1(CCN2CC(S(=O)(=O)NC(=O)Nc3c4c(cc5c3CCC5)CCC4)C2)N=N1 [Example 139, potassium salt]", "pIC50", "5.00 to 6.00"),
    ("CC(C)N1CC(N2CCC(S(=O)(=O)NC(=O)Nc3c4c(cc5c3CCC5)CCC4)CC2)C1 [Example 62, potassium salt]", "pIC50", "5.00 to 6.00"),
    ("O=C(Nc1c2c(cc3c1CCC3)CCC2)NS(=O)(=O)C1CNc2ccccc2C1 (stereo not drawn) [Example 35, potassium salt]", "pIC50", "> 6.00"),
    ("N#CCN1CCCC(S(=O)(=O)NC(=O)Nc2c3c(cc4c2CCC4)CCC3)C1 (stereo not drawn) [Example 58, potassium salt]", "pIC50", "5.00 to 6.00"),
    ("CC1(C)CC(N2CC(S(=O)(=O)NC(=O)Nc3c4c(cc5c3CCC5)CCC4)C2)C1 [Example 119, potassium salt]", "pIC50", "5.00 to 6.00"),
    ("CCCN1CC(S(=O)(=O)NC(=O)Nc2c3c(cc4c2CCC4)CCC3)C1 [Example 76, potassium salt]", "pIC50", "> 6.00"),
    ("CC(C)n1cccc(S(=O)(=O)NC(=O)Nc2c3c(cc4c2CCC4)CCC3)c1=O", "pIC50", "5.00 to 6.00"),
    ("O=C(Nc1c2c(cc3c1CCC3)CCC2)NS(=O)(=O)C1CN(Cc2cccnc2)C1 [Example 90, potassium salt]", "pIC50", "> 6.00"),
]
